Would you kindly list log10 of Binding affinity (RU) for each of these binders?
Biological target: acetylcholine receptor
Assay: SPR, AchR immobilized on CM5 chip, peptide at 10 uM
Would you kindly interpret these values as log10 of Binding affinity (RU) expressed in RU?

log10 of Binding affinity (RU) for KPTPR [5mer-741] is 1.15

log10 of Binding affinity (RU) for RKICNK [6mer-1-840] is 1.08

log10 of Binding affinity (RU) for KRTADK [6mer-1-835] is 1.41

log10 of Binding affinity (RU) for KCKVK [5mer-1020] is 1.08

log10 of Binding affinity (RU) for RLFCKK [6mer-2-359] is 2.13

log10 of Binding affinity (RU) for KRYRKK [6mer-2-342] is 2.16

log10 of Binding affinity (RU) for KLITKR [6mer-2-336] is 2.13

log10 of Binding affinity (RU) for RREDFK [6mer-1-813] is 1.18

log10 of Binding affinity (RU) for KRFQRK [6mer-2-378] is 2.12

log10 of Binding affinity (RU) for KRNWAK [6mer-1-839] is 1.46

log10 of Binding affinity (RU) for RTHGR [5mer-1005] is 1.48

log10 of Binding affinity (RU) for RGQTRK [6mer-2-350] is 2.17

log10 of Binding affinity (RU) for RFAKK [5mer-1034] is 1.15

log10 of Binding affinity (RU) for KCKFR [5mer-717] is 1.30

log10 of Binding affinity (RU) for KTPMK [5mer-738] is 1.46

log10 of Binding affinity (RU) for KRFQKK [6mer-2-388] is 2.14

log10 of Binding affinity (RU) for RWFYRR [6mer-2-352] is 2.14

log10 of Binding affinity (RU) for KFCNK [5mer-730] is 1.43

log10 of Binding affinity (RU) for KTDMK [5mer-1011] is 1.40

log10 of Binding affinity (RU) for KKPMNR [6mer-1-844] is 1.45

log10 of Binding affinity (RU) for KKFNWK [6mer-1-849] is 1.32

log10 of Binding affinity (RU) for KQYQKR [6mer-2-391] is 2.15

log10 of Binding affinity (RU) for RMMGK [5mer-740] is 1.32

log10 of Binding affinity (RU) for KRNTIR [6mer-1-834] is 1.23

log10 of Binding affinity (RU) for KSIYRK [6mer-2-363] is 2.17

log10 of Binding affinity (RU) for KKHSEK [6mer-1-862] is 1.51

log10 of Binding affinity (RU) for RNADR [5mer-725] is 1.28

log10 of Binding affinity (RU) for KRDHAK [6mer-1-837] is 1.28

log10 of Binding affinity (RU) for RKEKWK [6mer-1-825] is 1.48

log10 of Binding affinity (RU) for RINVR [5mer-737] is 1.11

log10 of Binding affinity (RU) for KRMHAK [6mer-1-819] is 1.23

log10 of Binding affinity (RU) for KVYRRR [6mer-2-381] is 2.14

log10 of Binding affinity (RU) for KECIK [5mer-711] is 1.51

log10 of Binding affinity (RU) for KWLQRR [6mer-2-396] is 2.09
